These measurements were taken from patent US20260062466A1.

target: CHIKV-LR 2006 (virus) (Chikungunya virus strain LR 2006); test: cell-based or functional assay

{"binder": "520.D02 (antibody, V domains shown) VH: QVQLVQSGSELQKPGASVKVSCKASGYTFTENAIIWVRQAPGQGLEWMGRIIRYPGRPTIAQGFTGRFGFSLDTSINTAYLEISNLKAEDTAFFYCAREYCDSSSCSSFDYWGQGTLVTVSS VL: QSVLTQPPSASGSPGQSVTISCTGTNNDVGIYSYVSWYQQHPGKAPKLMIYEVSKRPSGVPDRFSGSKSGNTASLTVSGLQADDEADYYCSSYAGSNSYVFGSGTKVTVL", "FRNT neutralisation, LR 2006 EC50 [ng/mL]": 5}
